study.system: human NaV subtype, like NaV 1.7 (Homo sapiens, UniProt Q15858)
Sequence (Q15858 whole entry): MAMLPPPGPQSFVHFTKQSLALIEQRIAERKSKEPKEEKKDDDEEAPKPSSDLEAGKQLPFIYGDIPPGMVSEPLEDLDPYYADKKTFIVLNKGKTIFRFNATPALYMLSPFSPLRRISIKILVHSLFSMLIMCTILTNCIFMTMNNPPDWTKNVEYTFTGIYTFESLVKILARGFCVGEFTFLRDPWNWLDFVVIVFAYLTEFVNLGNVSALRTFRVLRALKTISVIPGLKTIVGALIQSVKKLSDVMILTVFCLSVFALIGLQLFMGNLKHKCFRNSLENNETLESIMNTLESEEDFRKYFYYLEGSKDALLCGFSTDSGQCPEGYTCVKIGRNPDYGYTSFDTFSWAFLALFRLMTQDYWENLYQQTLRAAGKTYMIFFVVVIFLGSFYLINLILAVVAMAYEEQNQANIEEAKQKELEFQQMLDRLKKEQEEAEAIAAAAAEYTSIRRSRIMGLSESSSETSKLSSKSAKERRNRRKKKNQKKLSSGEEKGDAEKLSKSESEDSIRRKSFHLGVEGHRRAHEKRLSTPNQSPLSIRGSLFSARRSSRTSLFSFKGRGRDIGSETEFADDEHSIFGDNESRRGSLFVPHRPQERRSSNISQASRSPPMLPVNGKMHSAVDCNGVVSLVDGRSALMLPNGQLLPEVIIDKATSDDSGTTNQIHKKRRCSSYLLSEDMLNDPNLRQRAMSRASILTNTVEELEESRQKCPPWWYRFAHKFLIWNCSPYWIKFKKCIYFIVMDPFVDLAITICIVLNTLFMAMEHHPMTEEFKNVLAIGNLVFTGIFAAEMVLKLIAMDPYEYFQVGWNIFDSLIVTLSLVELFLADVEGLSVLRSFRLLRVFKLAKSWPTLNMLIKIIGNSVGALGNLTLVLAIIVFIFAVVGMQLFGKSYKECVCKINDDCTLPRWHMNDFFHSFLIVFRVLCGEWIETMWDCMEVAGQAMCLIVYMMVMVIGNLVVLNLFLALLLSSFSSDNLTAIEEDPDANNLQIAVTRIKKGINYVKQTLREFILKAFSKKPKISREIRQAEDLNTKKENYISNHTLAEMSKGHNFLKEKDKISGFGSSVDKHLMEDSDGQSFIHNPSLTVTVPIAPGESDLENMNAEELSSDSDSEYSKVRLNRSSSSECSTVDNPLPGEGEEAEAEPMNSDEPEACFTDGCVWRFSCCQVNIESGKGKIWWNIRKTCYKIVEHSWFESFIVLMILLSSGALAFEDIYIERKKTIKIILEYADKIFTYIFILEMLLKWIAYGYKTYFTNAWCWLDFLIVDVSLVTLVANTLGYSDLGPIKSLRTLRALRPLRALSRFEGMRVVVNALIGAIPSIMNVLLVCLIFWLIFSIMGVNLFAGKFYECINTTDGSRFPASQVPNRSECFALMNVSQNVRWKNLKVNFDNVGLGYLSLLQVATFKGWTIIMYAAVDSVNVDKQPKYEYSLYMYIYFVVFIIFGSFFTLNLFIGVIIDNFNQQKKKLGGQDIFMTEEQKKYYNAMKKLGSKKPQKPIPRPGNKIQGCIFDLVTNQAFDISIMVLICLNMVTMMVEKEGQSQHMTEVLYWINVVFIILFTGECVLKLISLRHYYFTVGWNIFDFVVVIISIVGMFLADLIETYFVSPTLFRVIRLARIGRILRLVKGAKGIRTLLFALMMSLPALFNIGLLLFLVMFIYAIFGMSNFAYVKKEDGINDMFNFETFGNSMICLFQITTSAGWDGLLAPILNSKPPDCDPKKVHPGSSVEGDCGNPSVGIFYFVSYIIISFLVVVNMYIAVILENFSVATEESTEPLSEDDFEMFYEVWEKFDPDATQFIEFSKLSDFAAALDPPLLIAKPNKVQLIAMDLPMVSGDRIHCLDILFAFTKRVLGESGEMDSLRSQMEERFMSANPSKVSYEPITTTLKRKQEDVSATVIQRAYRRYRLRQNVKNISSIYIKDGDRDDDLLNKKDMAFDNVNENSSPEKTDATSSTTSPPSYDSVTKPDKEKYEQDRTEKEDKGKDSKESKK
assay: E-VIPR optical membrane potential assay with electrical stimulation
condition.info: active against one or more sodium channels; Table 3 does not name the assay or NaV subtype; read-out: Binned Activity Data (IC50)
As shown below, each of these compounds has a reported IC50 value.

Below are worked cases with known answers.
Cc1cc(C(=O)N2CCC3(CC2)c2ccc(C(F)(F)F)n2CCN3CC(N)=O)ccc1OC(C)C = 2 to 5 µM
CNC(=O)N1CCn2c(C(F)(F)F)ccc2C12CCN(C(=O)c1ccc(OC(C)C)c(C)c1)CC2 = ≤ 2 µM
Cc1cc(C(=O)N2CCC3(CC2)c2ccc(CC(F)(F)F)n2CCN3C)ccc1S(=O)(=O)C(C)C = > 5 µM

Next up:
// query Recorded IC50 of "CC(C)Oc1ccc(C(=O)N2CCC3(CC2)c2ccc(S(C)(=O)=O)n2CCN3C)cc1Cl" , please.
// result > 5 µM

---

study.system: UniProt Q15858
assay: E-VIPR optical membrane potential assay with electrical stimulation
condition.info: active against one or more sodium channels; Table 3 does not name the assay or NaV subtype; read-out: Binned Activity Data (IC50)
pIC50: −log10 of the molar value.
As shown below, each of these compounds has a reported pIC50 value.

COc1cc(C(=O)N2CCC3(CC2)c2ccc(C(F)(F)F)n2CC(C)N3C)ccc1OC(C)C (stereo not shown) = ≥ 5.70

// query Recorded pIC50 of "CN1CCn2c(C(F)(F)F)ccc2C12CCN(C(=O)c1ccccc1-c1ccccc1)CC2" , please.
// result < 5.30

// query Recorded pIC50 of "CC(=O)c1ccc2n1CCN(C)C21CCN(C(=O)c2ccc(Cc3ccccc3)cc2)CC1" , please.
// result 5.30 to 5.70

// query Recorded pIC50 of "COc1cc(C(=O)N2CCC3(CC2)NCCn2c(C(F)(F)F)ccc23)ccc1OC(C)C" , please.
// result ≥ 5.70

---

study.system: human NaV subtype, like NaV 1.7 (Homo sapiens)
assay: E-VIPR optical membrane potential assay with electrical stimulation
condition.info: active against one or more sodium channels; Table 3 does not name the assay or NaV subtype; read-out: Binned Activity Data (IC50)
pIC50: −log10 of the molar value.
As shown below, each of these compounds has a reported pIC50 value.

Below are worked cases with known answers.
CC(C)C(O)c1ccc(C(=O)N2CCC3(CC2)c2ccc(C(F)(F)F)n2CCN3C)cc1 (stereo not shown) = ≥ 5.70
Cc1cc(C(=O)N2CCC3(CC2)NCC(C)n2c(C(=O)C(F)(F)F)ccc23)ccc1OC(C)C (stereo not shown) = ≥ 5.70
COc1cc(C(=O)N2CCC3(CC2)NC(C)Cn2c(C(F)(F)F)ccc23)ccc1OC(C)C (stereo not shown) = ≥ 5.70
COc1cc(C(=O)N2CCC3(CC2)c2ccc(C(=O)C(C)(C)C)n2CCN3C)ccc1OC(C)(C)C = ≥ 5.70

// query Recorded pIC50 of "Cc1cc(C(=O)N2CC[C@@]3(c4ccc(C(F)(F)F)n4CCN3C)[C@H](F)C2)ccc1C(C)(C)O" , please.
// result ≥ 5.70

// query Recorded pIC50 of "Cc1cc(C(=O)N2CCC3(CC2)c2c(Cl)cc(C(F)(F)F)n2CCN3C)ncc1OC(C)C" , please.
// result ≥ 5.70

---

study.system: human NaV subtype, like NaV 1.7 (Homo sapiens)
assay: E-VIPR optical membrane potential assay with electrical stimulation
condition.info: active against one or more sodium channels; Table 3 does not name the assay or NaV subtype; read-out: Binned Activity Data (IC50)
measurement.type: IC50

Below are worked cases with known answers.
CC(C)CCOc1ccc(C(=O)N2CCC3(CC2)c2ccc(C(=O)C(F)(F)F)n2C(C)CN3C)cc1 (stereo not drawn) [Compound 646] = ≤ 2000 nM
COc1ccc(C(=O)N2CCC3(CC2)c2ccc(C(=O)C(F)(F)F)n2C[C@H](C)N3C)cc1C(F)(F)F [Compound 726] = ≤ 2000 nM
CC(C)Oc1ccc(C(=O)N2CCC3(CC2)N[C@@H](C)Cn2c(C(F)(F)F)ccc23)cc1F [Compound 108] = 2000 to 5000 nM
CC1(C)Cn2c(C(=O)C(F)(F)F)ccc2C2(CCN(C(=O)c3ccc(S(=O)(=O)C(C)(C)C)cc3)CC2)N1 [Compound 208] = ≤ 2000 nM
CC(C)C(O)c1ccc(C(=O)N2CCC3(CC2)c2c(F)cc(C(F)(F)F)n2CCN3C)cc1 (stereo not drawn) [Compound 395] = ≤ 2000 nM
CN1CCn2c(C(F)(F)F)cc(F)c2C12CCN(C(=O)c1ccc(C3(O)CCC3)c(F)c1)CC2 [Compound 112] = ≤ 2000 nM

Next up:
// query Recorded IC50 of COc1cccc(C(=O)N2CCC3(CC2)c2ccc(C(F)(F)F)n2CCN3C)c1 [Compound 42] , please.
// result > 5000 nM

Cited source: patent US8916565B2
